# assay.target: human EP4 (hEP4) receptor (Homo sapiens, UniProt P35408)
# Sequence (P35408 whole entry): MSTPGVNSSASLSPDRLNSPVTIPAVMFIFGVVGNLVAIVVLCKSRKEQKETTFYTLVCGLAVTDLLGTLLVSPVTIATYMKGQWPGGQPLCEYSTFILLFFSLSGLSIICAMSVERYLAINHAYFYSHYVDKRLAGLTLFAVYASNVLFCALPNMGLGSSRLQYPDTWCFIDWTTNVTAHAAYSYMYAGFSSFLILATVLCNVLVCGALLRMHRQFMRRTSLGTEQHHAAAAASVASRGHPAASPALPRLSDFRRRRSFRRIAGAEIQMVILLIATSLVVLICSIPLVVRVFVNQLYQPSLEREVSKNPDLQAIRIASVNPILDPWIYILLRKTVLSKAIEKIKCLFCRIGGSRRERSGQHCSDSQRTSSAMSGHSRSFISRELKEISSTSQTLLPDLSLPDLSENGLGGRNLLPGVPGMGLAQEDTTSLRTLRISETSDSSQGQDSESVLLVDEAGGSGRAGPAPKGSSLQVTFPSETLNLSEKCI
# experiment: In vitro human EP4 functional antagonist activity using BRET biosensors (cAMP EPAC biosensor, TCS2510 stimulation)
# details: antagonist activity vs EC60 TCS2510, hEP4 in HEK-293 T cells
Structures can show the parent of a compound that is named as a salt.
Measured IC50 accompanies every entry in the list below.

                                   compound  assay_endpoint  meas_value
0  C[C@H](NC(=O)C1(N2CC[C@@H](Oc3cccc(C(F)(F)F)c3)C2)CCOCC1)c1ccc(S(C)(=O)=O)cc1 [Example 179, hydrochloride]            IC50    < 100 nM
1  C[C@H](NC(=O)C1(N2CC[C@@H](Oc3cccc(Cl)c3)C2)CCCC1)c1ccc(C(=O)O)cc1 [Example 157, hydrochloride]            IC50    < 100 nM

stdin: Given C[C@H](NC(=O)C1(N2CCC[C@H](Oc3cccc(Cl)c3)C2)CCOCC1)c1ccc(C(=O)O)cc1 [Example 134, hydrochloride] , respond with its IC50.
stdout: < 1000 nM

stdin: Given C[C@H](NC(=O)C1(c2ccc(OCC3CCCCC3)cn2)CCCC1)c1ccc(C(=O)O)cc1 [Example 127] , respond with its IC50.
stdout: < 1000 nM

stdin: Given C[C@H](NC(=O)C1(N2CC[C@@H](Oc3cccc(C(F)(F)F)c3)C2)CCOCC1)c1cccc(F)c1 [Example 188, hydrochloride] , respond with its IC50.
stdout: < 1000 nM

* * *

# assay.target: human EP4 (hEP4) receptor (Homo sapiens, UniProt P35408)
# experiment: In vitro human EP4 functional antagonist activity using BRET biosensors (cAMP EPAC biosensor, TCS2510 stimulation)
# details: antagonist activity vs EC60 TCS2510, hEP4 in HEK-293 T cells
Where a name gives a salt, the structure may show the parent alone.
Measured IC50 accompanies every entry in the list below.

Reference set (4 entries):
>>> df
                                   compound  assay_endpoint  meas_value
0  C[C@H](NC(=O)C1(c2cccc(OCC3CC3)c2)CCOCC1)c1ccc(C(=O)O)cc1 [Example 101]            IC50   < 1000 nM
1  CN(CCOc1ccccc1F)C1(C(=O)NC2(c3ccc(C(=O)O)cc3)CC2)CCOCC1 [Example 33, hydrochloride]            IC50    < 100 nM
2  C[C@H](NC(=O)C1(NCc2cccc(F)c2)CCOCC1)c1ccc(C(=O)O)cc1 [Example 20, hydrochloride]            IC50   < 1000 nM
3  C[C@H](NC(=O)C1(NCCOc2cccc(C(F)(F)F)c2)CCOCC1)c1ccc(C(=O)O)cc1 [Example 12]            IC50    < 100 nM

Okay, next one:
stdin: Given COc1cccc(OCCN(C)C2(C(=O)N[C@@H](C)c3ccc(C(=O)O)cc3)CCCCC2)c1 [Example 60, hydrochloride] , respond with its IC50.
stdout: < 100 nM

Hello, the source for this data is patent US12527779B2, in case you need it.
